target: UniProt P9WMJ9
Sequence (P9WMJ9 whole entry): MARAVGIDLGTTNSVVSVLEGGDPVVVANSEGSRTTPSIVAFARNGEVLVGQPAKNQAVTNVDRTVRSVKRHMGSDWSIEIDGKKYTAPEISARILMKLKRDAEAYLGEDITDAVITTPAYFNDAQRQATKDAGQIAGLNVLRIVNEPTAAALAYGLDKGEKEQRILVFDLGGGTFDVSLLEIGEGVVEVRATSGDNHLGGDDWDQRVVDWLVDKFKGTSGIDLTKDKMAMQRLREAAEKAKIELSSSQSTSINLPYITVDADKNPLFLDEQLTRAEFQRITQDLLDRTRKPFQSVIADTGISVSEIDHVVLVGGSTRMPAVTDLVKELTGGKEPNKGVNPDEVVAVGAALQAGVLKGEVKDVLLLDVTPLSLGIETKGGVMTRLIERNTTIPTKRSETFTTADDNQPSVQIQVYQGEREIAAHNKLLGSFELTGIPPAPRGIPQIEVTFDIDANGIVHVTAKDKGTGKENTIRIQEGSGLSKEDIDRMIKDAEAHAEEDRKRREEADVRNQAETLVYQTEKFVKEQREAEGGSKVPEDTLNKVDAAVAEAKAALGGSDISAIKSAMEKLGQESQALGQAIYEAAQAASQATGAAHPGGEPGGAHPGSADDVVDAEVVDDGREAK
observationType: IC50

INSERT INTO measurements (molecule, reportedresult) VALUES
  ('CNC(=O)[C@H]1O[C@@H](n2cnc3c(NCc4cccc(I)c4)nc(Cl)nc32)[C@H](O)[C@@H]1O [MECA, 2Cl-IB-MECA]', '~4.5 µM');
